# Procedure Summary: Stability in aqueous 25 mM PBS at pH 7.3 assessed as hydrolysis half life by HPLC analysis
# Format: physicochemical
The compounds listed here are annotated with their half-life.
Readout Label: half-life (h)

{"Compound": "CCCCCCCCCCCCCCCCOC(=O)Oc1ccc(COP(=O)(OCc2ccc(OC(=O)CC)cc2)OP(=O)(O)OP(=O)(O)OC[C@H]2O[C@@H](n3cc(C)c(=O)[nH]c3=O)C[C@@H]2O)cc1.N.N (stereo partly drawn)", "Experimental Result": 76}
{"Compound": "CCCCCCCCCCCCCCCCOC(=O)Oc1ccc(COP(=O)(OCc2ccc(OC(=O)CC)cc2)OP(=O)(O)OP(=O)(O)OC[C@H]2O[C@@H](n3cc(Cl)c(=O)[nH]c3=O)C[C@H]2N=[N+]=[N-])cc1.N.N (stereo partly drawn)", "Experimental Result": 67}
{"Compound": "CCCCCCCCCCCCCCCCOC(=O)Oc1ccc(COP(=O)(OCc2ccc(OC(=O)CC)cc2)OP(=O)(O)OP(=O)(O)OC[C@H]2O[C@@H](n3cc(C)c(=O)[nH]c3=O)C[C@@H]2N=[N+]=[N-])cc1.N.N (stereo partly drawn)", "Experimental Result": 83}
{"Compound": "CCCCCCCCCCCCCCCCOC(=O)Oc1ccc(COP(=O)(OCc2ccc(OC(=O)CCCC)cc2)OP(=O)(O)OP(=O)(O)OC[C@@H]2CC[C@H](n3cnc4c(=O)[nH]cnc43)O2)cc1.N.N (stereo partly drawn)", "Experimental Result": 41}
{"Compound": "CCCCCCCCCCCCCCCCOC(=O)Oc1ccc(COP(=O)(OCc2ccc(OC(=O)CCCC)cc2)OP(=O)(O)OP(=O)(O)OC[C@H]2O[C@@H](n3cc(/C=C/Br)c(=O)[nH]c3=O)C[C@@H]2O)cc1.N.N (stereo partly drawn)", "Experimental Result": 62}
{"Compound": "CCCCCCCCCCCCCCCCOC(=O)Oc1ccc(COP(=O)(OCc2ccc(OC(=O)CCCC)cc2)OP(=O)(O)OP(=O)(O)OC[C@@H]2O[C@H](n3cc(F)c(N)nc3=O)CS2)cc1.N.N (stereo partly drawn)", "Experimental Result": 36}
{"Compound": "CCCCCCCCCCCCCCCCOC(=O)Oc1ccc(COP(=O)(OCc2ccc(OC(=O)CCCC)cc2)OP(=O)(O)OP(=O)(O)OC[C@H]2O[C@@H](n3cc(C)c(=O)[nH]c3=O)C[C@@H]2N=[N+]=[N-])cc1.N.N (stereo partly drawn)", "Experimental Result": 84}
{"Compound": "CCCCCCCCCCCCCCCCOC(=O)Oc1ccc(COP(=O)(OCc2ccc(OC(=O)CCCC)cc2)OP(=O)(O)OP(=O)(O)OC[C@H]2O[C@@H](n3cc(Cl)c(=O)[nH]c3=O)C[C@@H]2F)cc1.N.N (stereo partly drawn)", "Experimental Result": 66}
